Tested on: Saccharomyces cerevisiae;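 note: PSI is a weighted mean of sequencing reads over stability bins, variants kept only with over 10 reads, mCherry proximal and sfGFP distal, peptide attached via GGGS linker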
experimentNotes: protein stability index of tFT-peptide fusion (C-terminal peptide) (PSI (0-1 scale)); higher = more stable (slower turnover)
reportedConditions: genetic background: das1 deletion; temperature: 37 C
Assign TRUE to entries whose protein stability index meets or exceeds 0.6; assign FALSE to the rest.

As a guide, the following entries are already answered.
INSERT INTO results (itemsequence, targetundertest, answerlabel) VALUES
  ('PCVCFIILGMLS', 'Saccharomyces cerevisiae', 'FALSE'),
  ('IVRSLFGYLCVV', 'Saccharomyces cerevisiae', 'TRUE'),
  ('APLLPPALALTC', 'Saccharomyces cerevisiae', 'FALSE'),
  ('YARFWYSKAFIC', 'Saccharomyces cerevisiae', 'TRUE'),
  ('LLLHFMFSIFWF', 'Saccharomyces cerevisiae', 'FALSE');

Hello, I need to know if MVVILLVHWEYV has measured protein stability index not below 0.6. Thanks! FALSE

Hello, I need to know if KCVVMFFLRSVS has measured protein stability index not below 0.6. Thanks! TRUE

Hello, I need to know if ICQFFFFALLSF has measured protein stability index not below 0.6. Thanks! FALSE

Hello, I need to know if GPHATYLYLVLA has measured protein stability index not below 0.6. Thanks! FALSE

Hello, I need to know if WDEVVAIVVCPV has measured protein stability index not below 0.6. Thanks! FALSE

Hello, I need to know if VFLLCLGFLVFS has measured protein stability index not below 0.6. Thanks! FALSE

Hello, I need to know if DFFTSFSLFFFL has measured protein stability index not below 0.6. Thanks! TRUE

Hello, I need to know if WQGLSGSPILVI has measured protein stability index not below 0.6. Thanks! FALSE

Hello, I need to know if STLPACNCLKLL has measured protein stability index not below 0.6. Thanks! TRUE

Hello, I need to know if NVWCWGASCFFC has measured protein stability index not below 0.6. Thanks! TRUE

Hello, I need to know if RSFNVGLELLVW has measured protein stability index not below 0.6. Thanks! FALSE

Hello, I need to know if VVFVVGAPPVLC has measured protein stability index not below 0.6. Thanks! FALSE

Hello, I need to know if PYVHPFRCYWVL has measured protein stability index not below 0.6. Thanks! TRUE

Hello, I need to know if SILVSIFILAMQ has measured protein stability index not below 0.6. Thanks! FALSE

Hello, I need to know if VSLLVFVVSSRV has measured protein stability index not below 0.6. Thanks! FALSE

Hello, I need to know if QHRAIKIEIKIN has measured protein stability index not below 0.6. Thanks! TRUE

Hello, I need to know if SVPCWVFLFCLA has measured protein stability index not below 0.6. Thanks! FALSE

Hello, I need to know if TDVLLLQLLISV has measured protein stability index not below 0.6. Thanks! FALSE

Hello, I need to know if VGVSCLVFFGVV has measured protein stability index not below 0.6. Thanks! TRUE

Hello, I need to know if SLVVMGSLWLRI has measured protein stability index not below 0.6. Thanks! FALSE

Hello, I need to know if PPHRTLLQLRTN has measured protein stability index not below 0.6. Thanks! TRUE

Hello, I need to know if LILLTFTLRVPV has measured protein stability index not below 0.6. Thanks! FALSE

Hello, I need to know if KIKKLKNRRKLV has measured protein stability index not below 0.6. Thanks! TRUE

Hello, I need to know if YFFVCYFSLLVF has measured protein stability index not below 0.6. Thanks! FALSE

The reported numbers originate from the supplement of paper PMC10724198.
